Attribution: paper PMC3913682

Assay: Solubility assay under CellSensor assay conditions (HPLC-UV)
Assay type: physicochemical
Details: nominal concentration 50 µM; 0 hours; assay buffer, 0.5% DMSO
Concentration @ t = 0 strictly under 30 µM means Fulfilled; at 30 µM or over means Not fulfilled.

Hi there! Is Concentration @ t = 0 for CC(=O)NCCc1c[nH]c2ccc(O)cc12 below 30 µM, do you know?
Not fulfilled

Hi there! Is Concentration @ t = 0 for COC(=O)[C@H]1[C@H]2C[C@@H]3c4[nH]c5cc(OC)ccc5c4CCN3C[C@H]2C[C@@H](OC(=O)c2cc(OC)c(OC)c(OC)c2)[C@@H]1OC below 30 µM, do you know?
Fulfilled

Hi there! Is Concentration @ t = 0 for O=c1cc(-c2ccccc2)oc2c(O)c(O)ccc12 [7,8-dihydroxyflavone] below 30 µM, do you know?
Fulfilled

Hi there! Is Concentration @ t = 0 for CN(C)CCC=C1c2ccccc2CCc2ccccc21 below 30 µM, do you know?
Not fulfilled

Hi there! Is Concentration @ t = 0 for O=C(NCCO)c1cc(C(=O)NCCO)cc(C(=O)NCCO)c1 [LM22A-4] below 30 µM, do you know?
Not fulfilled

----------
For each record, write down the corresponding Concentration @ t = 0.
Assay: Solubility assay under CellSensor assay conditions (HPLC-UV)
Format: physicochemical
Settings: nominal concentration 20 µM; 0 hours; assay buffer, 0.5% DMSO
Field format: number, assumed µM, no unit text.

Entry O=c1cc(-c2ccccc2)oc2c(O)c(O)ccc12 [7,8-dihydroxyflavone] needs its Concentration @ t = 0 filled in; supply it.
3.0

Entry CC(=O)NCCc1c[nH]c2ccc(O)cc12 needs its Concentration @ t = 0 filled in; supply it.
13

Entry O=C(NCCO)c1cc(C(=O)NCCO)cc(C(=O)NCCO)c1 [LM22A-4] needs its Concentration @ t = 0 filled in; supply it.
17

Entry COC(=O)[C@H]1[C@H]2C[C@@H]3c4[nH]c5cc(OC)ccc5c4CCN3C[C@H]2C[C@@H](OC(=O)c2cc(OC)c(OC)c(OC)c2)[C@@H]1OC needs its Concentration @ t = 0 filled in; supply it.
3.4

Entry CN(C)CCC=C1c2ccccc2CCc2ccccc21 needs its Concentration @ t = 0 filled in; supply it.
7.6

----------
Assay: Solubility assay under CellSensor assay conditions (HPLC-UV)
Format: physicochemical
Conditions: nominal concentration 5 µM; 0 hours; assay buffer, 0.5% DMSO
measuredMetric: Concentration @ t = 0 (µM)
Field format: number, assumed µM, no unit text.

Entry COC(=O)[C@H]1[C@H]2C[C@@H]3c4[nH]c5cc(OC)ccc5c4CCN3C[C@H]2C[C@@H](OC(=O)c2cc(OC)c(OC)c(OC)c2)[C@@H]1OC needs its Concentration @ t = 0 filled in; supply it.
2.8

Entry CC(=O)NCCc1c[nH]c2ccc(O)cc12 needs its Concentration @ t = 0 filled in; supply it.
7.6

Entry O=c1cc(-c2ccccc2)oc2c(O)c(O)ccc12 [7,8-dihydroxyflavone] needs its Concentration @ t = 0 filled in; supply it.
0.49

Entry O=C(NCCO)c1cc(C(=O)NCCO)cc(C(=O)NCCO)c1 [LM22A-4] needs its Concentration @ t = 0 filled in; supply it.
7.2

Entry CN(C)CCC=C1c2ccccc2CCc2ccccc21 needs its Concentration @ t = 0 filled in; supply it.
3.7
